Hello, the source for this data is patent US11697646B2, in case you need it.

system_name: human LPA1 (Homo sapiens, UniProt Q92633)
Construct: expressed in transfected cells; host or cells: Chinese hamster ovary (CHO) cells
Sequence (Q92633 whole entry): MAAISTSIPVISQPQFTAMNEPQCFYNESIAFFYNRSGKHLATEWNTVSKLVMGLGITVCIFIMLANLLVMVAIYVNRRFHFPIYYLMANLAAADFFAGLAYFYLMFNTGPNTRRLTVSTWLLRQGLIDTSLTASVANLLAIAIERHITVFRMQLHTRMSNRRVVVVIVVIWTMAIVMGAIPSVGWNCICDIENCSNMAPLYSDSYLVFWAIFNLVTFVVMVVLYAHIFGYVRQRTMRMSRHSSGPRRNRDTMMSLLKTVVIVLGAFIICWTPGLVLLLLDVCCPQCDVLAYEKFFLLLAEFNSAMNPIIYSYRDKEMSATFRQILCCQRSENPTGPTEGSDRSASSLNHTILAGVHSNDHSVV
assay_procedure: LPA1 functional antagonist assay (calcium flux)
Type: cell-based
stated_conditions: CHO cells overexpressing human LPA1; calcium flux induced by 10 nM LPA; read-out: hLPA1 IC50
Experimental: The effectiveness of compounds of the present invention as LPA1 inhibitors can be determined in an LPA1 functional antagonist assay as follows: The cells were then equilibrated to room temperature for 30 minutes before the assay. […] IC50 values were determined by fitting data to a 4-parameter logistic equation (GraphPad Prism, San Diego Calif.).
outcome_measure: log10 of IC50 (log10 of the value in nM)
// do not treat as linear: log10 of IC50, unit nM

Form: compound = C[C@@H](OC(=O)NCc1c(-c2ccc(O[C@H]3CCC[C@H](C(=O)O)C3)cn2)nnn1C)c1ccccc1 ; log10 of IC50 = 2.02

Form: compound = Cc1nc(-c2nnn(C)c2CNC(=O)OCCC(C)(C)C)ccc1O[C@H]1CCC[C@H](C(=O)O)C1 ; log10 of IC50 = 1.08

Form: compound = CCCCCOC(=O)Nc1c(-c2ccc(O[C@H]3CCC[C@H](C(=O)O)C3)cn2)nnn1C ; log10 of IC50 = 1.53

Form: compound = Cc1nc(-c2nnn(C)c2CNC(=O)OC2CCCC2)ccc1O[C@H]1CCC[C@H](C(=O)O)C1 ; log10 of IC50 = 1.26

Form: compound = Cc1nc(-c2nnn(C)c2CNC(=O)NCC(C)C)ccc1O[C@H]1CCC[C@H](C(=O)O)C1 ; log10 of IC50 = 3.36

Form: compound = CCC(C)CNC(=O)NCc1c(-c2ccc(O[C@H]3CCC[C@H](C(=O)O)C3)c(C)n2)nnn1C (mixture of isomers) ; log10 of IC50 = 2.02

Form: compound = Cn1nnc(-c2ccc(O[C@H]3CCC[C@H](C(=O)O)C3)cn2)c1CNC(=O)OCC(C)(C)C ; log10 of IC50 = 1.64

###

system_name: human LPA1 (Homo sapiens, UniProt Q92633)
Construct: expressed in transfected cells; host or cells: Chinese hamster ovary (CHO) cells
assay_procedure: LPA1 functional antagonist assay (calcium flux)
Assay type: cell-based
stated_conditions: CHO cells overexpressing human LPA1; calcium flux induced by 10 nM LPA; read-out: hLPA1 IC50
// reported pIC50 for each item listed
When answering, recall that pIC50 equals minus log10 of the concentration in mol/L, and write that number alone.

molecule=CCc1nc(-c2nnn(C)c2CNC(=O)OCC(C)C)ccc1O[C@H]1CCC[C@H](C(=O)O)C1 system_name="human LPA1 (Homo sapiens, UniProt Q92633)" result=6.92
molecule=Cn1nnc(-c2ccc(O[C@H]3CCC[C@H](C(=O)O)C3)cn2)c1CNC(=O)OCC1(C)CC1 system_name="human LPA1 (Homo sapiens, UniProt Q92633)" result=7.09
molecule=CCCOC(=O)Nc1c(-c2ccc(O[C@H]3CCC[C@H](C(=O)O)C3)c(C)n2)nnn1C system_name="human LPA1 (Homo sapiens, UniProt Q92633)" result=7.05

Now let's try a different one.
Form: molecule = CCCC(C)OC(=O)Nc1c(-c2ccc(O[C@H]3CCC[C@H](C(=O)O)C3)c(C)n2)nnn1C (stereo partly shown) ; pIC50 = 7.54

###

// reported pIC50 for each item listed
system_name: human LPA1 (Homo sapiens)
Construct: expressed in transfected cells; host or cells: Chinese hamster ovary (CHO) cells
assay_procedure: LPA1 functional antagonist assay (calcium flux)
Format: cell-based
stated_conditions: human LPA1 functional antagonist assay; read-out: hLPA1 IC50
Where a name gives a salt, the structure may show the parent alone.
When answering, recall that pIC50 equals minus log10 of the concentration in mol/L, and write that number alone.

Recorded results for 4 compounds are shown here.
compound=Cc1nc(-c2nnn(C)c2CNC(=O)OCCC(C)C)ccc1O[C@H]1CCC[C@H](C(=O)O)C1 system_name="human LPA1 (Homo sapiens)" outcome_measure=pIC50 result=7.80
compound=Cc1nc(-c2nnn(C)c2CNC(=O)OC2CC(F)(F)C2)ccc1O[C@H]1CCC[C@H](C(=O)O)C1 system_name="human LPA1 (Homo sapiens)" outcome_measure=pIC50 result=6.99
compound="Cc1nc(-c2nnn(C)c2CNC(=O)OCC(C)C(F)(F)F)ccc1O[C@H]1CCC[C@H](C(=O)O)C1 (mixture of isomers)" system_name="human LPA1 (Homo sapiens)" outcome_measure=pIC50 result=7.02
compound=Cc1nc(-c2nnn(C)c2CNC(=O)OCC2(CCF)CC2)ccc1O[C@H]1CCC[C@H](C(=O)O)C1 system_name="human LPA1 (Homo sapiens)" outcome_measure=pIC50 result=7.06

Now let's try a different one.
Form: compound = Cc1nc(-c2nnn(C)c2CN(C)C(=O)OCC2CC2)ccc1O[C@H]1CCC[C@H](C(=O)O)C1 [Example 205, TFA salt] ; pIC50 = 6.48

###

system_name: human LPA1 (Homo sapiens)
Construct: expressed in transfected cells; host or cells: Chinese hamster ovary (CHO) cells
assay_procedure: LPA1 functional antagonist assay (calcium flux)
Assay type: cell-based
stated_conditions: CHO cells overexpressing human LPA1; calcium flux induced by 10 nM LPA; read-out: hLPA1 IC50
Method: The effectiveness of compounds of the present invention as LPA1 inhibitors can be determined in an LPA1 functional antagonist assay as follows: The cells were then equilibrated to room temperature for 30 minutes before the assay. […] IC50 values were determined by fitting data to a 4-parameter logistic equation (GraphPad Prism, San Diego Calif.).
// reported IC50 for each item listed
Your reply should be a number followed by the unit it is expressed in.

Recorded results for 10 molecules are shown here.
chemical_string=Cn1nnc(-c2ccc(O[C@H]3CCC[C@H](C(=O)O)C3)c(C(F)(F)F)n2)c1CNC(=O)OCCCCF system_name="human LPA1 (Homo sapiens)" outcome_measure=IC50 result="25 nM"
chemical_string=Cc1nc(-c2nnn(C)c2CNC(=O)OCC(C)C)ccc1O[C@H]1CCC[C@H](C(=O)O)C1 system_name="human LPA1 (Homo sapiens)" outcome_measure=IC50 result="51 nM"
chemical_string=CC(C)OC(=O)Nc1c(-c2ccc(O[C@H]3CCC[C@H](C(=O)O)C3)cn2)nnn1C system_name="human LPA1 (Homo sapiens)" outcome_measure=IC50 result="389 nM"
chemical_string=Cc1nc(-c2nnn(C)c2CNC(=O)OCC2(C)CC2)c(F)cc1O[C@H]1CCC[C@H](C(=O)O)C1 system_name="human LPA1 (Homo sapiens)" outcome_measure=IC50 result="112 nM"
chemical_string=Cc1nc(-c2nnn(C)c2NC(=O)OCc2ccccc2)ccc1O[C@H]1CCC[C@H](C(=O)O)C1 system_name="human LPA1 (Homo sapiens)" outcome_measure=IC50 result="37 nM"
chemical_string=Cc1nc(-c2nnn(C)c2NC(=O)OC(C)C)ccc1O[C@H]1CCC[C@H](C(=O)O)C1 system_name="human LPA1 (Homo sapiens)" outcome_measure=IC50 result="129 nM"
chemical_string=CCCCCOC(=O)NCc1c(-c2ccc(O[C@H]3CCC[C@H](C(=O)O)C3)c(C)n2)nnn1C system_name="human LPA1 (Homo sapiens)" outcome_measure=IC50 result="3 nM"
chemical_string=Cc1nc(-c2nnn(C)c2CNC(=O)N(C)C(C)(C)C)ccc1O[C@H]1CCC[C@H](C(=O)O)C1 system_name="human LPA1 (Homo sapiens)" outcome_measure=IC50 result="1090 nM"
chemical_string=Cc1nc(-c2nnn(C)c2CNC(=O)OCCCF)ccc1O[C@H]1CCC[C@H](C(=O)O)C1 system_name="human LPA1 (Homo sapiens)" outcome_measure=IC50 result="411 nM"
chemical_string=CCCCCOC(=O)Nc1c(-c2ccc(O[C@H]3CCC[C@H](C(=O)O)C3)c(C)n2)nnn1C system_name="human LPA1 (Homo sapiens)" outcome_measure=IC50 result="6 nM"

Per the reported human LPA1 (Homo sapiens) data, CCCCOC(=O)N(C)Cc1c(-c2ccc(O[C@H]3CCC[C@H](C(=O)O)C3)c(C)n2)nnn1C has IC50 of 19 nM

Per the reported human LPA1 (Homo sapiens) data, Cc1nc(-c2nnn(C)c2NC(=O)OCC2CC2)c(F)cc1O[C@H]1CCC[C@H](C(=O)O)C1 has IC50 of 300 nM

Per the reported human LPA1 (Homo sapiens) data, Cc1nc(-c2nnn(C)c2CCNC(=O)OCc2ccccc2)ccc1O[C@H]1CCC[C@H](C(=O)O)C1 has IC50 of 525 nM

###

system_name: human LPA1 (Homo sapiens, UniProt Q92633)
Construct: expressed in transfected cells; host or cells: Chinese hamster ovary (CHO) cells
assay_procedure: LPA1 functional antagonist assay (calcium flux)
Type: cell-based
stated_conditions: CHO cells overexpressing human LPA1; calcium flux induced by 10 nM LPA; read-out: hLPA1 IC50
outcome_measure: IC50 (nM)
The response must be a number in nM with no trailing unit.

Recorded results for 6 compounds are shown here.
chemical_string=Cc1nc(-c2nnn(C)c2NC(=O)OCCC(F)(F)F)ccc1O[C@H]1CCC[C@H](C(=O)O)C1 unit=nM result=43
chemical_string=CCCCOC(=O)N(C)Cc1c(-c2ccc(O[C@H]3CCC[C@H](C(=O)O)C3)cn2)nnn1C unit=nM result=1020
chemical_string=CCc1nc(-c2nnn(C)c2CNC(=O)OCc2ccccc2)ccc1O[C@H]1CCC[C@H](C(=O)O)C1 unit=nM result=8
chemical_string=Cc1nc(-c2nnn(C)c2CNC(=O)N(C)CCC(C)C)ccc1O[C@H]1CCC[C@H](C(=O)O)C1 unit=nM result=92
chemical_string=Cc1nc(-c2nnn(C)c2CNC(=O)OCCCC(C)(F)F)ccc1O[C@H]1CCC[C@H](C(=O)O)C1 unit=nM result=71
chemical_string=CCCC1(COC(=O)NCc2c(-c3ccc(O[C@H]4CCC[C@H](C(=O)O)C4)c(C)n3)nnn2C)CCC1 unit=nM result=58

Form: compound = Cc1nc(-c2nnn(C)c2NC(=O)O[C@H](C)c2ccccc2)ccc1O[C@H]1CCC[C@H](C(=O)O)C1 ; IC50 = 26

Form: compound = Cc1nc(-c2nnn(C)c2CNC(=O)OCc2cc(F)cc(F)c2)ccc1O[C@H]1CCC[C@H](C(=O)O)C1 ; IC50 = 5

Form: compound = Cc1nc(-c2nnn(C)c2NC(=O)OCC2CCCC2)ccc1O[C@H]1CCC[C@H](C(=O)O)C1 ; IC50 = 32

Form: compound = CCCCNC(=O)NCc1c(-c2ccc(O[C@H]3CCC[C@H](C(=O)O)C3)c(CC)n2)nnn1C ; IC50 = 647

Form: compound = Cc1nc(-c2nnn(C)c2CNC(=O)N(C)CC2CCC2)ccc1O[C@H]1CCC[C@H](C(=O)O)C1 ; IC50 = 82

Form: compound = Cc1nc(-c2nnn(C)c2CNC(=O)CC2CCCC2)ccc1O[C@H]1CCC[C@H](C(=O)O)C1 ; IC50 = 105
